System: Staphylococcus aureus
Test: Antibacterial activity against methicillin resistant Staphylococcus aureus ATCC33591 assessed as inhibition of bacterial growth incubated for 24 hrs by broth microdilution method
Type: functional
Flag rule - MIC less than 30 µg/mL flags 1.0; the remaining entries get 0.0.

Input: # TODO verify MIC < 30 µg/mL strictly for this molecule: O=C(Nc1ccc(C2NCCc3c2[nH]c2ccccc32)cc1)c1ccccc1 (stereo not given)
Output: 0.0

Input: Please check: MIC for CN1CCc2c([nH]c3ccccc23)C1c1ccc(NC(=O)c2cccc([N+](=O)[O-])c2)cc1 (stereo not given) , strictly under 30 µg/mL or not?
Output: 0.0

Input: Lab note: MIC threshold 30 µg/mL. Does this molecule come in strictly under it? Cc1ccccc1C(=O)Nc1ccc(C2c3[nH]c4ccccc4c3CCN2C)cc1 (stereo not given)
Output: 0.0

Input: hey, is MIC for O=C(Nc1ccc(C2NCCc3c2[nH]c2ccccc32)cc1)c1ccccc1F (stereo not given) lower than 30 µg/mL or not?
Output: 0.0

Input: Consider the molecule O=C(Nc1ccc(C2NCCc3c2[nH]c2ccccc32)cc1)c1cccc(F)c1 (stereo not given) . Is its MIC strictly less than 30 µg/mL?
Output: 1.0

Input: is_below(MIC, 30 µg/mL) for CN1CCc2c([nH]c3ccccc23)C1c1ccc(NC(=O)c2ccc(F)c(C(F)(F)F)c2)cc1 (stereo not given) ?
Output: 1.0

Input: Is 30 µg/mL strictly greater than the molecule's reported MIC? molecule: O=C(Nc1ccc(C2NCCc3c2[nH]c2ccccc32)cc1)c1cccc([N+](=O)[O-])c1 (stereo not given)
Output: 1.0

Input: Report whether reported MIC is lower than 30 µg/mL (strictly) for CN1CCc2c([nH]c3ccccc23)C1c1ccc(NC(=O)c2ccc([N+](=O)[O-])cc2)cc1 (stereo not given)
Output: 1.0

Input: # TODO verify MIC < 30 µg/mL strictly for this molecule: O=C(Nc1ccc(C2NCCc3c2[nH]c2ccccc32)cc1)c1cccc(C(F)(F)F)c1 (stereo not given)
Output: 1.0

Input: Is the reported MIC for CN1CCc2c([nH]c3ccccc23)C1c1ccc(NC(=O)c2ccc(F)cc2)cc1 (stereo not given) strictly below 30 µg/mL?
Output: 1.0

Input: A record lists CN1CCc2c([nH]c3ccccc23)C1c1ccc(NC(=O)c2ccc(Br)cc2)cc1 (stereo not given) . Is its MIC below 30 µg/mL?
Output: 0.0

Input: Is MIC of Cc1cccc(C(=O)Nc2ccc(C3NCCc4c3[nH]c3ccccc43)cc2)c1 (stereo not given) strictly below 30 µg/mL?
Output: 0.0

Input: # strict comparison: is reported MIC < 30 µg/mL? input = O=C(Nc1ccc(C2NCCc3c2[nH]c2ccccc32)cc1)c1ccc(F)c(C(F)(F)F)c1 (stereo not given)
Output: 1.0

Input: Does the reported MIC of the following molecule sit strictly below 30 µg/mL? CN1CCc2c([nH]c3ccccc23)C1c1ccc(NC(=O)c2cccc(Cl)c2)cc1 (stereo not given)
Output: 1.0

Input: Does this molecule meet the criterion MIC < 30 µg/mL? O=C(Nc1ccc(C2NCCc3c2[nH]c2ccccc32)cc1)c1cc(C(F)(F)F)cc(C(F)(F)F)c1 (stereo not given)
Output: 1.0

Input: Does this molecule meet the criterion MIC < 30 µg/mL? CN1CCc2c([nH]c3ccccc23)C1c1ccc(NC(=O)c2ccccc2)cc1 (stereo not given)
Output: 0.0

Input: I'd appreciate it if you could check whether O=C(Nc1ccc(C2NCCc3c2[nH]c2ccccc32)cc1)c1ccc(Br)cc1 (stereo not given) has MIC smaller than 30 µg/mL.
Output: 0.0

Input: Confirm or reject: MIC of O=C(Nc1ccc(C2NCCc3c2[nH]c2ccccc32)cc1)c1ccc(Cl)cc1 (stereo not given) lies strictly below 30 µg/mL
Output: 1.0

Input: For this molecule, is MIC lower than 30 µg/mL? COC(=O)c1ccc(C(=O)Nc2ccc(C3NCCc4c3[nH]c3ccccc43)cc2)cc1 (stereo not given)
Output: 0.0

Input: Could you please tell me whether MIC recorded for O=C(Nc1ccc(C2NCCc3c2[nH]c2ccccc32)cc1)c1ccc(C(F)(F)F)cc1 (stereo not given) is less than 30 µg/mL?
Output: 1.0
